Origin of measurements: paper PMC5423974

Experiment: Pooled analysis of non-compartmental plasma PK of single-dose selumetinib in healthy subjects, by ethnicity
Format: in vivo, human
Settings: human, plasma, oral, non-Japanese Asian (N = 36); healthy subjects, single dose; median (min, max); read-out: tmax
result-type: tmax

[ask] Could you share which tmax value was measured for "Cn1cnc2c(F)c(Nc3ccc(Br)cc3Cl)c(C(=O)NOCCO)cc21" ?
[reply] 1.6 h

====

Assay: Pooled analysis of non-compartmental plasma PK of single-dose selumetinib in healthy subjects, by ethnicity
Assay type: in vivo, human
Details: human, plasma, oral, 25 mg, Indian (N = 9); healthy subjects, single dose; arithmetic mean (SD)
result-type: half-life
Number first, unit second.

[ask] Given the entry "Cn1cnc2c(F)c(Nc3ccc(Br)cc3Cl)c(C(=O)NOCCO)cc21" , report its measured half-life.
[reply] 9.5 h
